Measured values drawn from ChEMBL document CHEMBL3272355 for this set.

Listed here are compounds together with their documented MIC.
- Test system: Staphylococcus aureus
- Assay text: Antibacterial activity against beta-lactamase producing benzylpenicillin-resistant Staphylococcus aureus Russell assessed as growth inhibition after 18 hrs by serial dilution method
- Format: functional
Give the value; after it, write the unit.

Solved entries:
INSERT INTO assay_data (compound, system_name, assay_readout, data_value) VALUES
  ('O=C(Cc1ccncc1)N[C@@H]1C(=O)N2C(C(=O)O)=C(Cc3ccccc3)CS[C@H]12', 'Staphylococcus aureus', 'MIC', '5 µg/mL'),
  ('NC(C(=O)N[C@@H]1C(=O)N2C(C(=O)O)=C(Cc3cccnc3)CS[C@H]12)c1cccs1 (some centres not stated)', 'Staphylococcus aureus', 'MIC', '5 µg/mL'),
  ('O=C(O)C1=C(Cc2cccnc2)CS[C@@H]2[C@H](NC(=O)[C@H](O)c3ccccc3)C(=O)N12', 'Staphylococcus aureus', 'MIC', '12.5 µg/mL'),
  ('N[C@@H](C(=O)N[C@@H]1C(=O)N2C(C(=O)O)=C(Cc3ccccc3)CS[C@H]12)c1ccccc1', 'Staphylococcus aureus', 'MIC', '2.5 µg/mL'),
  ('O=C(Cc1cccs1)N[C@@H]1C(=O)N2C(C(=O)O)=C(Cc3cccnc3)CS[C@H]12', 'Staphylococcus aureus', 'MIC', '10 µg/mL'),
  ('O=C(Cc1cccs1)N[C@@H]1C(=O)N2C(C(=O)O)=C(Cc3ccccc3)CS[C@H]12', 'Staphylococcus aureus', 'MIC', '10 µg/mL'),
  ('CCSCC(=O)N[C@@H]1C(=O)N2C(C(=O)O)=C(Cc3ccccc3)CS[C@H]12', 'Staphylococcus aureus', 'MIC', '1.25 µg/mL'),
  ('O=C(COc1ccccc1)N[C@@H]1C(=O)N2C(C(=O)O)=C(Cc3ccccc3)CS[C@H]12', 'Staphylococcus aureus', 'MIC', '0.12 µg/mL');

Consider the compound C[C@@H](N)C(=O)N[C@@H]1C(=O)N2C(C(=O)O)=C(Cc3ccccc3)CS[C@H]12 and give its recorded MIC.
10 µg/mL

Consider the compound O=C(COc1ccccc1)N[C@@H]1C(=O)N2C(C(=O)O)=C(Cc3cccnc3)CS[C@H]12 and give its recorded MIC.
0.12 µg/mL

Consider the compound CC1=C(C(=O)O)N2C(=O)[C@@H](NC(=O)[C@H](N)c3ccccc3)[C@H]2SC1 [CEPHALEXIN ANHYDROUS] and give its recorded MIC.
5 µg/mL

Consider the compound N[C@@H](C(=O)N[C@@H]1C(=O)N2C(C(=O)O)=C(Cc3cccnc3)CS[C@H]12)C1CC1 and give its recorded MIC.
12.5 µg/mL

====

- Test system: Escherichia coli
- Assay text: Antibacterial activity against Escherichia coli assessed as growth inhibition after 18 hrs by serial dilution method
- Assay type: functional
Assay readout: MIC

Consider the molecule N[C@@H](C(=O)N[C@@H]1C(=O)N2C(C(=O)O)=C(Cc3ccccc3)CS[C@H]12)C1CC1 and give its recorded MIC.
> 250 µg/mL

Consider the molecule O=C(O)C1=C(Cc2ccccc2)CS[C@@H]2[C@H](NC(=O)C(F)(F)F)C(=O)N12 and give its recorded MIC.
> 500 µg/mL

Consider the molecule N[C@@H](C(=O)N[C@@H]1C(=O)N2C(C(=O)O)=C(Cc3ccccc3)CS[C@H]12)c1ccccc1 and give its recorded MIC.
25 µg/mL

Consider the molecule O=C(O)C1=C(Cc2ccccc2)CS[C@@H]2[C@H](NC(=O)C(C(=O)Oc3ccccc3)c3ccccc3)C(=O)N12 (some centres not stated) and give its recorded MIC.
> 100 µg/mL

Consider the molecule NC(CC(=O)N[C@@H]1C(=O)N2C(C(=O)O)=C(Cc3cccnc3)CS[C@H]12)C1CC=CCC1 (mixture of isomers) and give its recorded MIC.
125 µg/mL

Consider the molecule CC(=O)N[C@@H]1C(=O)N2C(C(=O)O)=C(Cc3ccccc3)CS[C@H]12 and give its recorded MIC.
> 500 µg/mL

Consider the molecule O=C(Cc1ccncc1)N[C@@H]1C(=O)N2C(C(=O)O)=C(Cc3cccnc3)CS[C@H]12 and give its recorded MIC.
25 µg/mL

Consider the molecule N[C@@H](C(=O)N[C@@H]1C(=O)N2C(C(=O)O)=C(Cc3cccnc3)CS[C@H]12)C1CC1 and give its recorded MIC.
500 µg/mL

Consider the molecule C[C@@H](N)C(=O)N[C@@H]1C(=O)N2C(C(=O)O)=C(Cc3ccccc3)CS[C@H]12 and give its recorded MIC.
> 100 µg/mL

Consider the molecule O=C(Cc1cccs1)N[C@@H]1C(=O)N2C(C(=O)O)=C(Cc3ccccc3)CS[C@H]12 and give its recorded MIC.
200 µg/mL

Consider the molecule CC(=O)OCC1=C(C(=O)O)N2C(=O)[C@@H](NC(=O)Cc3cccs3)[C@H]2SC1 and give its recorded MIC.
5 µg/mL

Consider the molecule O=C(O)CSCC(=O)N[C@@H]1C(=O)N2C(C(=O)O)=C(Cc3ccccc3)CS[C@H]12 and give its recorded MIC.
> 500 µg/mL

Consider the molecule N[C@@H](C(=O)N[C@@H]1C(=O)N2C(C(=O)O)=C(Cc3ccccc3)CS[C@H]12)c1ccc(O)cc1 and give its recorded MIC.
12.5 µg/mL

Consider the molecule O=C(O)C1=C(Cc2cccnc2)CS[C@@H]2[C@H](NC(=O)[C@H](O)c3ccccc3)C(=O)N12 and give its recorded MIC.
2.5 µg/mL

Consider the molecule O=C(Cc1cccs1)N[C@@H]1C(=O)N2C(C(=O)[O-])=C(C[n+]3ccccc3)CS[C@H]12 and give its recorded MIC.
5 µg/mL

Consider the molecule N#CCC(=O)N[C@@H]1C(=O)N2C(C(=O)O)=C(Cc3ccccc3)CS[C@H]12 and give its recorded MIC.
500 µg/mL

Consider the molecule O=C(Cc1ccncc1)N[C@@H]1C(=O)N2C(C(=O)O)=C(Cc3ccccc3)CS[C@H]12 and give its recorded MIC.
50 µg/mL
